FYI, the data here is from patent US20260193376A1.

Target: randomly biotinylated human FIXa (human, UniProt P00740 47-191; P00740 227-461, randomly biotinylated (NHS-d-biotin))
Sequence (P00740 47-191, chain 1 of 2): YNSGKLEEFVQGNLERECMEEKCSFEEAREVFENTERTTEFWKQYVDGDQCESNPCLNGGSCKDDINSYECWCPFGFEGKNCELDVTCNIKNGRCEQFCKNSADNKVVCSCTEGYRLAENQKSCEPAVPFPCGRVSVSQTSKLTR
Sequence (P00740 227-461, chain 2 of 2): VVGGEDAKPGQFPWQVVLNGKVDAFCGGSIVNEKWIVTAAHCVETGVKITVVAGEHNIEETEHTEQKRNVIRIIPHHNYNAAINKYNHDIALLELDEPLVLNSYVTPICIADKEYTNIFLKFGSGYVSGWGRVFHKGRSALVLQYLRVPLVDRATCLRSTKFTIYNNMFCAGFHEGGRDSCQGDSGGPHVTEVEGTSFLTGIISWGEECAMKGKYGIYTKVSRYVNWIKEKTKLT
Assay: BLI (Octet) in-tandem binning on biotinylated FIXa, 330 nM each; competitor (1st antibody): mAb01-2434
Procedure: Binning experiments were performed using Octet fortebio systems (HTX, Red384), based on the principle of Bio-Layer Interferometry, and equipped with streptavidin sensors (Pall Life Sciences, Menlo Park, CA), and using 8-channel mode. The binning assays were performed using a modified in-tandem setup. […] Unspecific binding were evaluated by including an unrelated human IgG4 bivalent antibody as first and second antibody control.
recordedMetric: interferometry response value
Give the figure only, with no unit attached.

Entry mAb01-9985 (antibody, V domains shown, Bivalent IgG) VH: EVQLVESGGGLVQPGRSLRLSCAASGFTFHDYAMHWVRQVPGKGLEWVSGISWRGDIGGYVKSVKGRFTISRDNAKNSLYLQMNSLRAEDTALYYCVKSYGSGSFYNAFDSWGQGTLVTVSS VL: DIQMTQSPSTLSASVGDRVTITCRASQSISSWLAWYQQKPGKAPKFLIYKASKLERGTPSRFSGSGSGTEFSLTISSLQPDDFATYYCLEYSSYIRTFGQGTKVEIK — recorded interferometry response value = 0.6
